Recorded values, source PubChem BioAssay AID1159580.

# method: chemical genetic growth profiling, strain panel (AID 1159580);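 note: tested at 20 µM; growth read once vehicle control cultures reached saturation at 30 °C; 1 = growth at the plate median or of vehicle wells; lower values mean less growth of the strain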
# experimental-conditions: S. cerevisiae deletion strains, growth OD, locus YLR371W, strain rom2, stronger effect = lower value
About 2,000 (36%) of roughly 5,500 compounds were called active. Not shown: some 18% with an inconclusive outcome. Some of the results follow.
recorded-metric: normalized growth
Give bare numbers.

- molecule: "CC1(C)CC2C1CCC1(C)OC2(C)CCC1O (configuration not stated)"
  normalized growth: 1.02
- molecule: "CC(=O)O[C@H]1C[C@@H](OC(C)=O)C(C)(C)C2C[C@@H](OC(C)=O)[C@]3(C)C(CC[C@@]4(C)[C@H](c5ccoc5)C(=O)[C@H]5O[C@]543)[C@]21C (some centres not stated)"
  normalized growth: 1.03
- molecule: "CCCNC(C)C(=O)Nc1ccccc1C (configuration not stated)"
  normalized growth: 0.983
- molecule: "O=C(O)CCC(=O)c1ccc(-c2ccccc2)cc1"
  normalized growth: 0.962

Batch lookup, normalized growth per entry.
1. COc1ccc(C[C@H](N)C(=O)N[C@@H]2[C@@H](CO)OC(n3cnc4c(N(C)C)ncnc43)[C@@H]2O)cc1 (some centres not stated)
2. CC1(C)CC2C1CCC1(C)OC1CCC2(C)O (configuration not stated)
3. CC12CCCC(O)(C1)C1CC(C)(C)C1CC2 (configuration not stated)
4. CCOP(=S)(OCC)Oc1ccc2c(C)c(Cl)c(=O)oc2c1

Ans:
1.02
0.999
1.01
0.993
